The measurements presented in this section are drawn from ChEMBL document CHEMBL4196118.

target: Prostaglandin D2 receptor 2 (Homo sapiens, UniProt Q9Y5Y4); experiment: biochemical
Sequence (Q9Y5Y4 whole entry): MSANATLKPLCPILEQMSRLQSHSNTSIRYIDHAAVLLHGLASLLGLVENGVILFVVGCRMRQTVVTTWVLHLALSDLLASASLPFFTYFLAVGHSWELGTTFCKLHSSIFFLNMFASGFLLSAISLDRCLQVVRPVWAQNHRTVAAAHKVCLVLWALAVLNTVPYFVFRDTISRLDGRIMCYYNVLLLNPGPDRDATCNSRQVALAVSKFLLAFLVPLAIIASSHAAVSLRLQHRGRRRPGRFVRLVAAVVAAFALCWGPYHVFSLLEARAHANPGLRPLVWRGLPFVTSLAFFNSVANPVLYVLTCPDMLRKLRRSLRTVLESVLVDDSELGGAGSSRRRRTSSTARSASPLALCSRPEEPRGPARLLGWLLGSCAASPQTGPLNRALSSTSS
Description: Displacement of [3H]PGD2 from human CRTh2 expressed in HEK cell membranes after 60 mins by scintillation counting method
Entries and their Ki
Write the numeric value and follow it with the unit.

The examples below pair each entry with its known result.
- molecule: "O=C(O)CCC(=O)N(C1CC1)[C@H]1c2ccccc2N(C(=O)c2cccc(F)c2)[C@H]2CC[C@H]21"
  target-under-test: "Prostaglandin D2 receptor 2 (Homo sapiens, UniProt Q9Y5Y4)"
  Ki: "8.1 nM"
- molecule: "CCN(C(=O)CCC(=O)O)[C@H]1c2ccccc2N(C(=O)c2ccc(OC(F)(F)F)cc2)[C@H]2CCCC12 (single isomer, unassigned)"
  target-under-test: "Prostaglandin D2 receptor 2 (Homo sapiens, UniProt Q9Y5Y4)"
  Ki: "12 nM"
- molecule: "O=C(O)CCC(=O)N(C1CC1)[C@H]1c2ccccc2N(C(=O)Nc2ccccc2)[C@H]2CCC[C@H]21"
  target-under-test: "Prostaglandin D2 receptor 2 (Homo sapiens, UniProt Q9Y5Y4)"
  Ki: "56 nM"
- molecule: "O=C(O)CCC(=O)N(CCC(F)(F)F)[C@H]1c2ccccc2N(C(=O)c2ccc(OC(F)(F)F)cc2)[C@H]2CCCC12 (single isomer, unassigned)"
  target-under-test: "Prostaglandin D2 receptor 2 (Homo sapiens, UniProt Q9Y5Y4)"
  Ki: "35 nM"
- molecule: "CCN(C(C)=O)[C@H]1c2ccccc2N(C(=O)c2ccccc2)[C@H]2CCC[C@@H]12"
  target-under-test: "Prostaglandin D2 receptor 2 (Homo sapiens, UniProt Q9Y5Y4)"
  Ki: "26 nM"

Task: # get_value(readout= Ki, system= Prostaglandin D2 receptor 2 (Homo sapiens, UniProt Q9Y5Y4)) for O=C(O)COC(=O)N(C1CC1)C1c2ccccc2N(C(=O)c2ccccc2)C2CCCC21 (racemic)
Result: 9.4 nM

Task: Form: Entry = "O=C(O)CCC(=O)N(C1CC1)[C@H]1c2cc(F)ccc2N(C(=O)c2ccc(SC(F)(F)F)cc2)[C@H]2CCC[C@H]21" | System = Prostaglandin D2 receptor 2 (Homo sapiens, UniProt Q9Y5Y4) | Ki = ____
Result: 8.4 nM

Task: Fill in the recorded Ki for this molecule, with Prostaglandin D2 receptor 2 (Homo sapiens, UniProt Q9Y5Y4) as test system: O=C(O)CCC(=O)N(C1CC1)C1c2ccccc2N(C(=O)c2ccccc2)C2CCCC21 (racemic)
Result: 10 nM

---

Consider the following molecules and their measured IC50 readings.
target: Prostaglandin D2 receptor 2 (Homo sapiens, UniProt Q9Y5Y4)
In your response, put the unit directly after the numeric value.

Illustrative cases are given below, each with its answer.
- molecule: "O=C(O)CCC(=O)N(C1CC1)C1c2ccccc2N(C(=O)OCc2ccccc2)C2CCC21 (racemic)"
  endpoint-value: "0.21 µM"
- molecule: "O=C(O)CCC(=O)N(C1CC1)[C@H]1c2ccccc2N(C(=O)c2ccc(F)cc2)[C@H]2CC[C@H]21"
  endpoint-value: "0.02 µM"
- molecule: "O=C(O)CCC(=O)N(C1CC1)C1c2ccccc2N(C(=O)OCc2ccccc2)C2CCCCC21 (racemic)"
  endpoint-value: "0.175 µM"
- molecule: "CCN(C(C)=O)[C@H]1c2ccccc2N(C(=O)c2ccccc2)[C@H]2CCC[C@@H]12"
  endpoint-value: "1.84 µM"
- molecule: "O=C(O)COC(=O)N(C1CC1)[C@H]1c2ccccc2N(C(=O)c2ccc(OC(F)(F)F)cc2)[C@H]2CC[C@H]21"
  endpoint-value: "0.0009 µM"
- molecule: "O=C(O)CCC(=O)N(C1CC1)[C@H]1c2cc(F)ccc2N(C(=O)c2ccc(OC(F)(F)F)cc2)[C@H]2CCC[C@H]21"
  endpoint-value: "0.008 µM"

Task: What value of measured IC50 is listed for "O=C(O)CCC(=O)N(C1CC1)[C@H]1c2cc(F)ccc2N(C(=O)c2ccc(SC(F)(F)F)cc2)[C@H]2CCC[C@H]21" ?
Result: 0.012 µM

Task: Entry O=C(O)CCC(=O)N(C1CC1)C1c2ccccc2N(C(=O)c2ccccc2)C2CCCC21 (racemic) : reported IC50 = ?
Result: 0.041 µM

---

assay: AUC in rat at 3 mg/kg, iv; format: ADME, organism-based; conditions: in vivo
assay-readout: AUC (µM·h)
Report the value in µM·h with no unit label.

Task: Param item = "O=C(O)CCC(=O)N(C1CC1)[C@H]1c2cc(F)ccc2N(C(=O)c2ccc(OC(F)(F)F)cc2)[C@H]2CCC[C@H]21" ; retrieve measured AUC.
Result: 3.4

---

assay: Half life in monkey at 1 mg/kg, iv; type: ADME, organism-based, Macaca mulatta; conditions: rhesus monkey, in vivo
assay-readout: half-life (h)
Give your result in h as a bare value.

Task: What measured half-life goes with "O=C(O)CCC(=O)N(C1CC1)[C@H]1c2cc(F)ccc2N(C(=O)c2ccc(OC(F)(F)F)cc2)[C@H]2CCC[C@H]21" ?
Result: 12.9

---

assay: Volume of distribution in dog at 1 mg/kg, iv; format: ADME, organism-based, Canis lupus familiaris; details: in vivo
assay-readout: Vd (L/kg)
Respond numerically; units are L/kg and should not be typed.

Task: Entry "O=C(O)CCC(=O)N(C1CC1)[C@H]1c2cc(F)ccc2N(C(=O)c2ccc(OC(F)(F)F)cc2)[C@H]2CCC[C@H]21" : reported Vd = ?
Result: 2.4

---

assay: Clearance in rat plasma at 3 mg/kg, iv; type: ADME, organism-based
assay-readout: clearance

Task: What does the data say about its clearance? Entry: "O=C(O)CCC(=O)N(C1CC1)[C@H]1c2cc(F)ccc2N(C(=O)c2ccc(OC(F)(F)F)cc2)[C@H]2CCC[C@H]21"
Result: 29.1 mL/min/kg

---

test: AUC in dog at 2 mg/kg, po; assay type: ADME, organism-based, Canis lupus familiaris; details: in vivo
assay-readout: AUC (µM·h)
Provide the reading as a plain figure in µM·h.

Task: Look up AUC: "O=C(O)CCC(=O)N(C1CC1)[C@H]1c2cc(F)ccc2N(C(=O)c2ccc(OC(F)(F)F)cc2)[C@H]2CCC[C@H]21"
Result: 8.51

---

target: Prostaglandin D2 receptor 2 (Homo sapiens); assay: biochemical
The molecules listed here are annotated with their Ki.
Please respond with the number in nM and leave the unit unwritten.

Task: GET /values?readout=Ki&item= "O=C(O)CCC(=O)N(C1CC1)[C@H]1c2ccccc2N(C(=O)c2ccc(F)cc2)[C@H]2CC[C@H]21"
Result: 7.3

Task: # Ki lookup, item CC1(N(C(=O)CCC(=O)O)[C@H]2c3ccccc3N(C(=O)c3ccc(OC(F)(F)F)cc3)[C@H]3CCCC32)CC1 (single isomer, unassigned)
Result: 64

Task: Look up Ki: "O=C(O)CCC(=O)N(C1CC1)[C@H]1c2cc(C3CC3)ccc2N(C(=O)c2ccc(OC(F)(F)F)cc2)[C@H]2CCC[C@H]21"
Result: 43

Task: So what's the measured Ki for this one? CC(C)N(C(=O)CCC(=O)O)[C@H]1c2ccccc2N(C(=O)c2ccc(OC(F)(F)F)cc2)[C@H]2CCCC21 (single isomer, unassigned)
Result: 50

Task: Requested read-out: Ki. Entry: "O=C(O)CCC(=O)N(C1CC1)[C@H]1c2ccccc2N(CC(=O)Nc2ccc(F)cc2)[C@H]2CCC[C@H]21"
Result: 660

Task: Please give the measured Ki for this molecule: CC(CC(=O)N(C1CC1)[C@H]1c2ccccc2N(C(=O)OCc2ccccc2)[C@H]2CCC[C@H]21)C(=O)O (some centres not stated)
Result: 510

Task: // query Ki value for entry O=C(O)CCC(=O)N(C1CC1)C1c2ccccc2N(C(=O)OCc2ccccc2)C2CCC21 (racemic)
Result: 25

---

experiment: Tmax in rhesus monkey at 10 mg/kg, po; type: ADME, organism-based, Macaca mulatta; conditions: in vivo
assay-readout: Tmax (min)
All answers are understood in min, so give the number only.

Task: What value of Tmax has been reported for the following compound? "O=C(O)CCC(=O)N(C1CC1)[C@H]1c2cc(F)ccc2N(C(=O)c2ccc(OC(F)(F)F)cc2)[C@H]2CCC[C@H]21"
Result: 25.2

---

assay: Tmax in rat at 10 mg/kg, po; type: ADME, organism-based; conditions: in vivo
assay-readout: Tmax (min)
Write the answer as a number in min, unit excluded.

Task: Which Tmax value belongs to "O=C(O)CCC(=O)N(C1CC1)[C@H]1c2cc(F)ccc2N(C(=O)c2ccc(OC(F)(F)F)cc2)[C@H]2CCC[C@H]21" ?
Result: 34.8

---

test: Oral bioavailability in rat at 10 mg/kg; type: ADME, organism-based; conditions: in vivo
assay-readout: bioavailability (%)
Please reply with the bare figure in % and do not write the unit itself.

Task: # lookup: bioavailability of "O=C(O)CCC(=O)N(C1CC1)[C@H]1c2cc(F)ccc2N(C(=O)c2ccc(OC(F)(F)F)cc2)[C@H]2CCC[C@H]21"
Result: 61

---

test: AUC (0 to 6 hrs) in rat at 0.5 mg/kg, iv; assay type: ADME, organism-based; parameters: time < 6 hr, dose 0.5 mg/kg, route intravenous; conditions: in vivo
Please use Fulfilled whenever AUC(0-t) at 6 h is not below 0.3 µM·h, and Not fulfilled whenever it is.

Reference set, count: 5
- molecule: "C[C@@H](OC(=O)N1c2ccccc2[C@H](N(C(=O)CCC(=O)O)C2CC2)[C@@H]2CCC[C@@H]21)c1ccc(F)cc1"
  label-class: "Fulfilled"
- molecule: "O=C(O)CCC(=O)N(C1CC1)[C@H]1c2ccccc2N(C(=O)c2cccc(OC(F)(F)F)c2)[C@H]2CC[C@H]21"
  label-class: "Fulfilled"
- molecule: "O=C(O)CCC(=O)N(C1CC1)[C@H]1c2ccc(F)cc2N(C(=O)c2ccc(OC(F)(F)F)cc2)[C@H]2CCC[C@H]21"
  label-class: "Not fulfilled"
- molecule: "O=C(O)CCC(=O)N(C1CC1)[C@H]1c2ccccc2N(C(=O)c2ccc(F)cc2)[C@H]2CC[C@H]21"
  label-class: "Fulfilled"
- molecule: "O=C(O)CCC(=O)N(C1CC1)[C@H]1c2ccccc2N(C(=O)c2ccc(OC(F)(F)F)cc2)[C@H]2CCCC21 (single isomer, unassigned)"
  label-class: "Fulfilled"

Task: Does the reported AUC(0-t) at 6 h for "C[C@H](OC(=O)N1c2ccccc2[C@H](N(C(=O)CCC(=O)O)C2CC2)[C@@H]2CCC[C@@H]21)c1ccc(F)cc1" fall at or above the 0.3 µM·h mark?
Result: Fulfilled

Task: Given "O=C(O)CCC(=O)N(C1CC1)[C@H]1c2cc(F)c(Cl)cc2N(C(=O)c2ccc(OC(F)(F)F)cc2)[C@H]2CCC[C@H]21" , state whether its AUC(0-t) at 6 h is at least 0.3 µM·h.
Result: Fulfilled

Task: Exam item: decide whether the reported AUC(0-t) at 6 h for "O=C(O)CCC(=O)N(C1CC1)[C@H]1c2ccccc2N(C(=O)OCc2ccc(F)cc2)[C@H]2CCC[C@H]21" is at least 0.3 µM·h.
Result: Not fulfilled
